biological target: Purified recombinant sACt protein (Rattus norvegicus, UniProt Q9Z286); construct: sACt, amino acids 1-469, plus a C-terminal Hexahistidine tag; Hexahistidine (C); experiment: In vitro adenylyl cyclase assay with purified recombinant sACt
Sequence (Q9Z286 1-469): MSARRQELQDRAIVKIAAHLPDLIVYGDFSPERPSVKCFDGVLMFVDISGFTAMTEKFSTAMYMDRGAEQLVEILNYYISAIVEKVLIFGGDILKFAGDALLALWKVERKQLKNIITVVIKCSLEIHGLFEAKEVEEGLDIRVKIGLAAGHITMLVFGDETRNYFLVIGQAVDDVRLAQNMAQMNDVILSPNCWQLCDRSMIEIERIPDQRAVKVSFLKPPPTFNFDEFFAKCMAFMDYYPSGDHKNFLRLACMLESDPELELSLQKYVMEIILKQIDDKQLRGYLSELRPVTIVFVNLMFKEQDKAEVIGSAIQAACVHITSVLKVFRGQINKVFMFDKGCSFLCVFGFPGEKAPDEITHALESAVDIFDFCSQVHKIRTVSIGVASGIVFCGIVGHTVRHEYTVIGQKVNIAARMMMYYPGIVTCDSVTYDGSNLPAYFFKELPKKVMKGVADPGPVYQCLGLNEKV
MEASUREMENT KIND: EC50 (mM)

[[record]]
smiles_data = "O=C(O)O"
assay_result = 25.4


----------
molecular target: UniProt:O32393; assay: biochemical
Sequence (O32393 1-1202): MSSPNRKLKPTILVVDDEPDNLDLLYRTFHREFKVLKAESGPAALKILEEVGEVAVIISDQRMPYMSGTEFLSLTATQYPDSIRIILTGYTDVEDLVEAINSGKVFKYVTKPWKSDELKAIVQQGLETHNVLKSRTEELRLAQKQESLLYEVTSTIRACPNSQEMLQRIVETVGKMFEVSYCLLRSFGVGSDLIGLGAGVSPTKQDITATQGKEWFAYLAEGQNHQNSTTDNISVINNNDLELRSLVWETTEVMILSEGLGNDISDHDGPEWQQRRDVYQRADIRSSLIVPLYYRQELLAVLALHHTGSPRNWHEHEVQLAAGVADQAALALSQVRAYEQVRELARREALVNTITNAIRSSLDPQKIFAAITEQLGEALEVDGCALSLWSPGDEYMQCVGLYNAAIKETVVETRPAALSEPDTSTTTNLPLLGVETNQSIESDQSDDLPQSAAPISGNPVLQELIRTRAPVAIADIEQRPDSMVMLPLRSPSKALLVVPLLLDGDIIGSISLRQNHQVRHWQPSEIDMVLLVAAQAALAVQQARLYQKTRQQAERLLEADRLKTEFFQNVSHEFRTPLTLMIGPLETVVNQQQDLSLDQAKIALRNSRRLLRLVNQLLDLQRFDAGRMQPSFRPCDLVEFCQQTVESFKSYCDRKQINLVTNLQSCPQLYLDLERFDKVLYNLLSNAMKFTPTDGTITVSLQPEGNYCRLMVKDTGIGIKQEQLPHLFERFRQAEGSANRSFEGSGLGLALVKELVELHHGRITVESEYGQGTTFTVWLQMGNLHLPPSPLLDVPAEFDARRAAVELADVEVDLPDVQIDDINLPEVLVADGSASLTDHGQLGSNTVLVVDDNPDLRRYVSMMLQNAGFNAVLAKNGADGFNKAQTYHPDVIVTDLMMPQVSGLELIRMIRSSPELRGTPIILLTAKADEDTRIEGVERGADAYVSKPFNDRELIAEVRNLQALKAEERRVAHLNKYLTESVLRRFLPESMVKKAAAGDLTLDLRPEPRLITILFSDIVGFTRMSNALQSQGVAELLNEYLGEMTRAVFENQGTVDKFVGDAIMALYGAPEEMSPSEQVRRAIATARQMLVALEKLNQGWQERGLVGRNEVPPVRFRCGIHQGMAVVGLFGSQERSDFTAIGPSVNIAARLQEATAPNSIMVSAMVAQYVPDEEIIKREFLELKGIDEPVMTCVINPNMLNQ
MEASUREMENT KIND: EC50 (mM)

[[record]]
smiles_data = "O=C(O)O"
measurement_kind = "EC50"
unit_descriptor = "mM"
assay_result = 18.8


----------
# % Basal (adenylyl cyclase activity relative to activity in the absence of any salts) annotations
biological target: Purified recombinant sACt protein (Rattus norvegicus); construct: sACt, amino acids 1-469, plus a C-terminal Hexahistidine tag; Hexahistidine (C); made in house; host or cells: insect HiFive cells (baculovirus, Bac-to-Bac); assay: In vitro adenylyl cyclase assay with purified recombinant sACt; format: biochemical; settings: salts at 50 mM
MEASUREMENT KIND: % Basal (adenylyl cyclase activity relative to activity in the absence of any salts) (%)

[[record]]
smiles_data = "[Cl-].[Na+]"
tested_system = "Purified recombinant sACt protein (Rattus norvegicus)"
unit_descriptor = "%"
assay_result = 93

[[record]]
smiles_data = "O=S([O-])[O-].[Na+].[Na+]"
tested_system = "Purified recombinant sACt protein (Rattus norvegicus)"
unit_descriptor = "%"
assay_result = 164

[[record]]
smiles_data = "O=C(O)O"
tested_system = "Purified recombinant sACt protein (Rattus norvegicus)"
unit_descriptor = "%"
assay_result = 411

[[record]]
smiles_data = "O=C([O-])O.[K+]"
tested_system = "Purified recombinant sACt protein (Rattus norvegicus)"
unit_descriptor = "%"
assay_result = 412

[[record]]
smiles_data = "O=S([O-])O.[Na+]"
tested_system = "Purified recombinant sACt protein (Rattus norvegicus)"
unit_descriptor = "%"
assay_result = 138

[[record]]
smiles_data = "O=P([O-])([O-])O.[Na+].[Na+]"
tested_system = "Purified recombinant sACt protein (Rattus norvegicus)"
unit_descriptor = "%"
assay_result = 75

[[record]]
smiles_data = "O=S(=O)([O-])[O-].[Na+].[Na+]"
tested_system = "Purified recombinant sACt protein (Rattus norvegicus)"
unit_descriptor = "%"
assay_result = 66

